# TARGET ENTITY: HiBiT tagged PARP14 (Homo sapiens, UniProt Q460N5)
# Construct: engineered to contain a HiBiT tag on both alleles of the PARP14 gene; endogenous in cells; host or cells: Jurkat cells stably transfected with LgBiT (Promega), PARP14 locus edited by CRISPR/Cas9
# Sequence (Q460N5 whole entry): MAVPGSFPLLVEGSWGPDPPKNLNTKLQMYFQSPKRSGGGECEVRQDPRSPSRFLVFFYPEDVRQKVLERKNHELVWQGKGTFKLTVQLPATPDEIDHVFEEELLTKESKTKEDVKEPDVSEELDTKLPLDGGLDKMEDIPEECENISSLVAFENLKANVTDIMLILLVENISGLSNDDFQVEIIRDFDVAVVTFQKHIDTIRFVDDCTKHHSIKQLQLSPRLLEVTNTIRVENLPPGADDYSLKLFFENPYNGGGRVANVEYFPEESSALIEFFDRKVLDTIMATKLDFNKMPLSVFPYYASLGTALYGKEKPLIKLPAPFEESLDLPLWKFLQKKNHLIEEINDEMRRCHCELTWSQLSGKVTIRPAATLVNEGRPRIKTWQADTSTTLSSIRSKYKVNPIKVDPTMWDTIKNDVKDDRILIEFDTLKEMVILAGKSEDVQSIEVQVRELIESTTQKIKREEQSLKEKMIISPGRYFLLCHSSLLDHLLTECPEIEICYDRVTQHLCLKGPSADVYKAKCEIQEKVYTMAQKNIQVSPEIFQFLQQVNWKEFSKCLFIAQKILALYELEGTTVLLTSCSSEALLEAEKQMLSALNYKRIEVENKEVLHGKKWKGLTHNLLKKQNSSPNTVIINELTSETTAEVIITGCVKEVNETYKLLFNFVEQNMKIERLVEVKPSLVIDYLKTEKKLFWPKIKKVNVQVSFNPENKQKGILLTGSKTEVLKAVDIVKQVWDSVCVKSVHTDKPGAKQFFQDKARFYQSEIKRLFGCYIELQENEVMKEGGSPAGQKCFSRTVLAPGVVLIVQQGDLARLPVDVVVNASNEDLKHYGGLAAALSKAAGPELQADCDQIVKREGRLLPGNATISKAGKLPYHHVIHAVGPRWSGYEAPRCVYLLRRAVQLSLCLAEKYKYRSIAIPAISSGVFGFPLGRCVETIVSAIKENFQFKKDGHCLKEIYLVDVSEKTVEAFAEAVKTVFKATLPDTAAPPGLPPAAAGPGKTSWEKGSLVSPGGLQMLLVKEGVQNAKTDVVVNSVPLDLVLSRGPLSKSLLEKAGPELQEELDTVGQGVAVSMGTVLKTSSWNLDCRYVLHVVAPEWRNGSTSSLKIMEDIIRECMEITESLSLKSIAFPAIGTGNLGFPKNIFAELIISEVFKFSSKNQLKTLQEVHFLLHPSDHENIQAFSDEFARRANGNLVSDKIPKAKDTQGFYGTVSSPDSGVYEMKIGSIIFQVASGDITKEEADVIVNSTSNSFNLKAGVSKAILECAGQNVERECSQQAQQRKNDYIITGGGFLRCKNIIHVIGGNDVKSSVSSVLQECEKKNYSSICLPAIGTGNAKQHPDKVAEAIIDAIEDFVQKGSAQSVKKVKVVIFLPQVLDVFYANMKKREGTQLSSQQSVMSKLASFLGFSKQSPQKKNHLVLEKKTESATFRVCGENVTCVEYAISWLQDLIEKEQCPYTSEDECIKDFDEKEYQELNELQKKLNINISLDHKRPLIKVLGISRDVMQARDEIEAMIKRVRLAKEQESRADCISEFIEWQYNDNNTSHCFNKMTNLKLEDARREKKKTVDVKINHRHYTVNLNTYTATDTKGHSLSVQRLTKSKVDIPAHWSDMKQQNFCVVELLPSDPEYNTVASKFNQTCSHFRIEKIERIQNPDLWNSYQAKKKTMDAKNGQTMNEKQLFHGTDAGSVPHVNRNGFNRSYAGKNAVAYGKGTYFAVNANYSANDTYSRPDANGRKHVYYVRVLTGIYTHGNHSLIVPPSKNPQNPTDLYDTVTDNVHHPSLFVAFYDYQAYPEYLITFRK
# ASSAY COMMENT: HiBiT assay for the degradation of PARP14 (HiBiT tagged PARP14 in LgBiT expressing Jurkat cells, 2 or 24 hours)
# Format: cell-based
# CONDITION SET: Assay B (Example B): HiBiT tagged PARP14 degradation in LgBiT expressing Jurkat cells, read-out: DC50
Counter-ions that a name gives are not always drawn.
// reported DC50 for each item listed

{"MOLECULE": "O=C1CCC(N2C(=O)c3cccc4c(N5CCC(N6CC(N7CCC(COc8cc(F)c9c(=O)[nH]c(CSC%10CCOCC%10)nc9c8)CC7)C6)CC5)ccc2c34)C(=O)N1 (stereo not drawn) [Example 169]", "TARGET ENTITY": "HiBiT tagged PARP14 (Homo sapiens, UniProt Q460N5)", "DC50": "< 30 nM"}
{"MOLECULE": "O=C1CCC(Nc2ccc(N3CCC(C(=O)N4CC(N5CCC(COc6cc(F)c7c(=O)[nH]c(CSC8CCOCC8)nc7c6)CC5)C4)CC3)c(F)c2)C(=O)N1 (stereo not drawn) [Example 152, formate]", "TARGET ENTITY": "HiBiT tagged PARP14 (Homo sapiens, UniProt Q460N5)", "DC50": "< 30 nM"}

Below: the item to evaluate.
Need DC50, item O=C1CCC(Nc2ccc(N3CCC(CN4CCC(N5CCC(COc6cc(F)c7c(=O)[nH]c(CSC8CCOCC8)nc7c6)CC5)CC4)CC3)c(F)c2)C(=O)N1 (stereo not drawn) [Example 231]
< 30 nM

----------
// reported DC50 for each item listed
# TARGET ENTITY: HiBiT tagged PARP14 (Homo sapiens, UniProt Q460N5)
# Construct: engineered to contain a HiBiT tag on both alleles of the PARP14 gene; endogenous in cells; host or cells: Jurkat cells stably transfected with LgBiT (Promega), PARP14 locus edited by CRISPR/Cas9
# ASSAY COMMENT: HiBiT assay for the degradation of PARP14 (HiBiT tagged PARP14 in LgBiT expressing Jurkat cells, 2 or 24 hours)
# Type: cell-based
# CONDITION SET: Assay B (Example B): HiBiT tagged PARP14 degradation in LgBiT expressing Jurkat cells, read-out: DC50

The examples below pair each entry with its known result.
{"COMPOUND": "COc1cc(N2CCC(N3CC(N4CCC(COc5cc(F)c6c(=O)[nH]c(CSC7CCOCC7)nc6c5)CC4)C3)CC2)c(F)cc1N1CCC(=O)NC1=O [Example 166]", "DC50": "< 30 nM"}
{"COMPOUND": "O=C1CCC(Nc2ccc(N3CCN(CCN4CCC(COc5cc(F)c6c(=O)[nH]c(COC7CCOCC7)nc6c5)CC4)CC3)c(F)c2)C(=O)N1 (single isomer, unassigned) [Example 99a]", "DC50": "< 30 nM"}
{"COMPOUND": "Cn1nc(N2CCC(=O)NC2=O)c2ccc(N3CCC(N4CC(N5CCC(COc6cc(F)c7c(=O)[nH]c(CSC8CCOCC8)nc7c6)CC5)C4)CC3)cc21 [Example 161]", "DC50": "< 30 nM"}
{"COMPOUND": "O=C1CCC(Nc2ccc(N3CCN(CCN4CCC(COc5cc(F)c6c(=O)[nH]c(CSC7CCOCC7)nc6c5)CC4)CC3)c(Cl)c2)C(=O)N1 (centres unmarked) [Example 137]", "DC50": "< 30 nM"}

Below: the item to evaluate.
Need DC50, item O=C1CCC(Nc2ccc(N3CCC(N4CC(N5CCC(COc6cc(F)c7c(=O)[nH]c(CSC8CCOCC8)nc7c6)CC5)C4)CC3)c(F)c2)C(=O)N1 (single isomer, unassigned) [Example 116b]
< 30 nM

----------
# TARGET ENTITY: HiBiT tagged PARP14 (Homo sapiens)
# Construct: engineered to contain a HiBiT tag on both alleles of the PARP14 gene; endogenous in cells; host or cells: Jurkat cells stably transfected with LgBiT (Promega), PARP14 locus edited by CRISPR/Cas9
# ASSAY COMMENT: HiBiT assay for the degradation of PARP14 (HiBiT tagged PARP14 in LgBiT expressing Jurkat cells, 2 or 24 hours)
# Type: cell-based
# CONDITION SET: Assay B (Example B): HiBiT tagged PARP14 degradation in LgBiT expressing Jurkat cells, read-out: DC50
# Procedure: Jurkat cells stably transfected with LgBiT (Promega) were engineered to contain a HiBiT tag on both alleles of the PARP14 gene (Genbank Accession Number: NM_017554) via CRISPR/Cas9 editing. […] Degradation of PARP14 protein was assessed by measuring the luminescence of the HiBiT tag associating with the LgBiT protein as a proxy for the PARP14 protein. […] The average DMSO was calculated from 32 wells containing 0.1% DMSO only in columns 12 and 24 of the assay plate. […]
Where a name gives a salt, the structure may show the parent alone.
// reported DC50 for each item listed

The examples below pair each entry with its known result.
{"MOLECULE": "O=C1CCC(Nc2ccc3c(c2)CN(CCN2CCC(COc4cc(F)c5c(=O)[nH]c(CSC6CCOCC6)nc5c4)CC2)C3)C(=O)N1 (stereo not drawn)", "TARGET ENTITY": "HiBiT tagged PARP14 (Homo sapiens)", "DC50": "< 30 nM"}
{"MOLECULE": "O=C1CCC(Nc2ccc(N3CCN(CCN4CCC(CNc5cc6nc(CSC7CCOCC7)[nH]c(=O)c6c(F)c5F)CC4)CC3)cc2)C(=O)N1 (stereo not drawn) [Example 129, formate]", "TARGET ENTITY": "HiBiT tagged PARP14 (Homo sapiens)", "DC50": "< 30 nM"}

Need DC50, item O=C1CCC(Nc2ccc(N3CCC(N4CCC(N5CCC(COc6cc(F)c7c(=O)[nH]c(CSC8CCOCC8)nc7c6)CC5=O)CC4)CC3)c(F)c2)C(=O)N1 (stereo not drawn) [Example 214, formate]
< 30 nM

----------
# TARGET ENTITY: HiBiT tagged PARP14 (Homo sapiens, UniProt Q460N5)
# Construct: engineered to contain a HiBiT tag on both alleles of the PARP14 gene; endogenous in cells; host or cells: Jurkat cells stably transfected with LgBiT (Promega), PARP14 locus edited by CRISPR/Cas9
# ASSAY COMMENT: HiBiT assay for the degradation of PARP14 (HiBiT tagged PARP14 in LgBiT expressing Jurkat cells, 2 or 24 hours)
# Format: cell-based
# CONDITION SET: Assay B (Example B): HiBiT tagged PARP14 degradation in LgBiT expressing Jurkat cells, read-out: DC50
# Description: Jurkat cells stably transfected with LgBiT (Promega) were engineered to contain a HiBiT tag on both alleles of the PARP14 gene (Genbank Accession Number: NM_017554) via CRISPR/Cas9 editing. […] Degradation of PARP14 protein was assessed by measuring the luminescence of the HiBiT tag associating with the LgBiT protein as a proxy for the PARP14 protein. […] The average DMSO was calculated from 32 wells containing 0.1% DMSO only in columns 12 and 24 of the assay plate. […]
Counter-ions that a name gives are not always drawn.
// reported DC50 for each item listed

The examples below pair each entry with its known result.
{"MOLECULE": "O=C1CCC(Nc2ccc(N3CC4(CC(CN5CCC(COc6cc(F)c7c(=O)[nH]c(CSC8CCOCC8)nc7c6)CC5)C4)C3)c(F)c2)C(=O)N1 (stereo not drawn) [Example 227, formate]", "DC50": "< 30 nM"}
{"MOLECULE": "O=C1CCC(Nc2ccc(N3CCC(N4CC(C(=O)N5CCC(COc6cc(F)c7c(=O)[nH]c(CSC8CCOCC8)nc7c6)CC5)C4)CC3)c(F)c2)C(=O)N1 (stereo not drawn) [Example 171]", "DC50": "< 30 nM"}

Below: the item to evaluate.
# query: DC50 | item O=C1CCC(Nc2ccc(N3CCC(N4CC(N5CCC(COc6ccc7c(=O)[nH]c(CSC8CCOCC8)nc7c6)CC5)C4)CC3)c(F)c2)C(=O)N1 (stereo not drawn) [Example 233] | system: HiBiT tagged PARP14 (Homo sapiens, UniProt Q460N5)
< 30 nM

----------
# TARGET ENTITY: catalytic domain of human PARP14 (residues 1611 to 1801) with NanoLuc tag (Homo sapiens)
# Construct: expressed in transfected cells; host or cells: HEK-293T cells (ATCC), pcDNA3.1(-) vector
# ASSAY COMMENT: NanoLuc assay for the degradation of PARP14 (NanoLuc-tagged PARP14 overexpressed in HEK-293T cells, 2 hours)
# Assay type: cell-based
# CONDITION SET: Assay A (Example A): NanoLuc-tagged PARP14 degradation in HEK-293T cells, read-out: DC50
QUANTITY MEASURED: DC50

{"COMPOUND": "O=C1CCC(Nc2ccc(N3CCC(N4CC(N5CCC(COc6cc(F)c7c(=O)[nH]c(CSC8CCOCC8)nc7c6)CC5)C4)CC3)cc2)C(=O)N1 (stereo not drawn)", "MEASURED": "< 100 nM"}

Need DC50, item Cn1c(=O)n(C2CCC(=O)NC2=O)c2cccc(C#CCN3CCC(COc4cc(F)c5c(=O)[nH]c(CSC6CCOCC6)nc5c4)CC3)c21 (stereo not drawn)
< 100 nM

Try this compound next: O=C1CCC(Nc2ccc(CN3CCC(N4CCC(COc5cc(F)c6c(=O)[nH]c(CSC7CCOCC7)nc6c5)CC4)CC3)cc2)C(=O)N1 (stereo not drawn)
< 100 nM
